The measurements presented in this section are drawn from patent US10870639B2.

assay: Pharmacokinetic profile in mice (p.o. and i.v.); assay type: in vivo; set-up: concentration or dose not given beside the values; conditions: mouse, plasma, LC-MS/MS, non-compartment analysis, read-out: Area under the curve (AUC) of mice
Field 'label' (enum: Satisfied / Not satisfied). Set to Satisfied when AUC is strictly under 500 ng·h/mL; else Not satisfied.

{"columns": ["COMPOUND", "ASSIGNED_CATEGORY"],
 "data": [
  ["Cc1ccc2c(-c3nc(Nc4cc(CN5C[C@@H](C)NC(C)(C)C5)cc(C5CC5)c4)ncc3Cl)c[nH]c2c1 [Example 25]", "Not satisfied"],
  ["Cc1ccc2c(-c3nc(Nc4cc(CN5CCN(C(C)(C)CO)CC5)cc(C5CC5)c4)ncc3Cl)c[nH]c2c1 [Control Compound 5]", "Not satisfied"],
  ["Cc1ccc2c(-c3nc(Nc4cc(C5CC5)cc(N5CCC(N(C)C)CC5)c4)ncc3Cl)c[nH]c2c1 [Control Compound 3]", "Not satisfied"],
  ["CN(C)C1CCN(c2cc(Nc3ncc(Cl)c(-c4c[nH]c5ccccc45)n3)cc(C3CC3)c2)CC1 [Control Compound 4]", "Not satisfied"],
  ["C[C@@H]1CN(Cc2cc(Nc3ncc(Cl)c(-c4c[nH]c5ccccc45)n3)cc(C3CC3)c2)C[C@H](C)N1CCO [Example 4]", "Satisfied"],
  ["COc1cc(CN2CCN(CCO)CC2)cc(Nc2ncc(Cl)c(-c3c[nH]c4ccccc34)n2)c1 [Control Compound 1]", "Satisfied"],
  ["OCCN1CCN(Cc2cccc(Nc3ncc(Cl)c(-c4c[nH]c5ccccc45)n3)c2)CC1 [Control Compound 2]", "Satisfied"]
]}
